Data origin, for the record: the supplement of paper PMC10307832

- System: SK-LU-1
- PROTOCOL NOTES: relative viability (nuclei count vs DMSO), 5 days (fraction); higher = more cells survive
- DETAILS: first compound 0.0002 µM
Let's look at some compounds and their measured relative viability.
EXPERIMENTAL READOUT: relative viability

COMPOUND | STUDY SYSTEM | OBSERVED MEASUREMENT
CC(=O)O[C@@]12CO[C@@H]1C[C@H](O)[C@@]1(C)C(=O)[C@H](O)C3=C(C)[C@@H](OC(=O)[C@H](O)[C@@H](NC(=O)OC(C)(C)C)c4ccccc4)C[C@@](O)([C@@H](OC(=O)c4ccccc4)[C@H]21)C3(C)C [Docetaxel] + Nc1nc2[nH]cc(CCc3ccc(C(=O)N[C@@H](CCC(=O)O)C(=O)O)cc3)c2c(=O)[nH]1 [Pemetrexed] (partner 0.2 µM) | SK-LU-1 | 0.947
CC(=O)O[C@@]12CO[C@@H]1C[C@H](O)[C@@]1(C)C(=O)[C@H](O)C3=C(C)[C@@H](OC(=O)[C@H](O)[C@@H](NC(=O)OC(C)(C)C)c4ccccc4)C[C@@](O)([C@@H](OC(=O)c4ccccc4)[C@H]21)C3(C)C [Docetaxel] + CS(=O)(=O)CCNCc1ccc(-c2ccc3ncnc(Nc4ccc(OCc5cccc(F)c5)c(Cl)c4)c3c2)o1 [Lapatinib] (partner 2 µM) | SK-LU-1 | 0.581

###

- Test system: NCI-H1792
- PROTOCOL NOTES: relative viability (nuclei count vs DMSO), 5 days (fraction); higher = more cells survive
- DETAILS: first compound 0.005 µM
Let's look at some molecules and their measured relative viability.

MOLECULE | STUDY SYSTEM | relative viability
Nc1ccn([C@@H]2O[C@H](CO)[C@@H](O)[C@@H]2O)c(=O)n1 [Cytarabine] + CC(C)C[C@H](NC(=O)[C@H](Cc1ccccc1)NC(=O)c1cnccn1)B(O)O [Bortezomib] (partner 0.002 µM) | NCI-H1792 | 0.925
COc1cc2nccc(Oc3ccc(NC(=O)Nc4cc(C)on4)c(Cl)c3)c2cc1OC [Tivozanib] + O=C(c1cc(Cc2n[nH]c(=O)c3ccccc23)ccc1F)N1CCN(C(=O)C2CC2)CC1 [Olaparib] (partner 8 µM) | NCI-H1792 | 0.313
COc1cc2nccc(Oc3ccc(NC(=O)Nc4cc(C)on4)c(Cl)c3)c2cc1OC [Tivozanib] + Cc1nc(Nc2ncc(C(=O)Nc3c(C)cccc3Cl)s2)cc(N2CCN(CCO)CC2)n1 [Dasatinib] (partner 0.075 µM) | NCI-H1792 | 0.77
Nc1ccn([C@@H]2O[C@H](CO)[C@@H](O)[C@@H]2O)c(=O)n1 [Cytarabine] + Cc1nc(Nc2ncc(C(=O)Nc3c(C)cccc3Cl)s2)cc(N2CCN(CCO)CC2)n1 [Dasatinib] (partner 0.075 µM) | NCI-H1792 | 1.34

###

Let's look at some compounds and their measured relative viability.
- Test system: SW 1573
- PROTOCOL NOTES: relative viability (nuclei count vs DMSO), 5 days (fraction); higher = more cells survive
- DETAILS: first compound 0.253 µM
EXPERIMENTAL READOUT: relative viability

COMPOUND | OBSERVED MEASUREMENT
O=c1[nH]c2ccccc2n1C1CCN(CCCC(c2ccc(F)cc2)c2ccc(F)cc2)CC1 [Pimozide] + COc1cc2c(Oc3ccc(NC(=O)C4(C(=O)Nc5ccc(F)cc5)CC4)cc3F)ccnc2cc1OCCCN1CCOCC1 [Foretinib] (partner 0.25 µM) | 0.946
Cc1cnc(-c2cnc(NCCNc3ccc(C#N)cn3)nc2-c2ccc(Cl)cc2Cl)[nH]1 + N=C(N)NC(=N)NCCc1ccccc1 [Phenformin] (partner 250 µM) | 0.334
Cc1cnc(-c2cnc(NCCNc3ccc(C#N)cn3)nc2-c2ccc(Cl)cc2Cl)[nH]1 + Cc1nc(NC(=O)N2CCC[C@H]2C(N)=O)sc1-c1ccnc(C(C)(C)C(F)(F)F)c1 [Alpelisib] (partner 2 µM) | 0.765
Cc1cnc(-c2cnc(NCCNc3ccc(C#N)cn3)nc2-c2ccc(Cl)cc2Cl)[nH]1 + O=C(CCCCCCC(=O)Nc1ccccc1)NO [Vorinostat] (partner 1 µM) | 0.815
